Measured values drawn from PubChem BioAssay (NCI) for this set.

test system: MDA-MB-231 breast; test: NCI-60 one-dose screen, 48 h (100 = growth as untreated, 0 = no growth, -100 = all killed); settings: 10 µM unless noted
This is part of a sample that, as a whole, favours compounds with a hit. Of some 83,000 tested, about 20% had one in any assay. Active and inactive are the calls of the source. The calls were made as follows: active = growth percent below 10; inactive = the rest.
Recorded growth values for a group of molecules are listed next.

Worked examples, 3 molecules total:
MOLECULE: N=c1c2c(-c3ccccc3)c(-c3ccccc3)oc2ncn1NC(=O)c1cccnc1
growth: 102% (inactive)

MOLECULE: CCC(=O)Oc1cc(Cl)c(Cl)cc1Cl
growth: 114% (inactive)

MOLECULE: O=C(CCN1CCOCC1)Nc1cccc(-n2cc(-c3ccncc3)c(-c3ccc(Cl)c(O)c3)n2)c1
growth: 55.4% (inactive)

Turning to the following molecule.
Item C=C1CCC2C3(C)COC(c4ccc(NC(C)=O)cc4)OC3CCC2(C)C1C/C=C1/C(=O)OCC1O (centres undefined) has what recorded growth?
87.3% (inactive)

====

Tested on: COLO 205 colon
Experiment: NCI-60 one-dose screen, 48 h (100 = growth as untreated, 0 = no growth, -100 = all killed)
Details: 10 µM unless noted
Method: Cells are grown in 96 well plates and exposed to the test compound for 48 hours. Compounds are tested at a single concentration, which is 10^-5 M for most compounds. The reported endpoint is percent growth (GI% or GIPRCNT), where numbers from 0 - 100% represent growth inhibition, and numbers from -100% - 0 represent cell death. For example, a value of 40 represents 60% growth inhibition. A value of 0 means no net growth occurred over the course of the experiment. […]
The panel holds about 83,000 compounds, 20% with a hit somewhere; the sample as a whole holds those more often.
Criterion: growth strictly under 90%. Met: TRUE. Not met: FALSE.

Consider the worked cases shown below.
MOLECULE: CN1CCCc2cc(/C=C3\SC(=S)N(C(Cc4ccc(O)cc4)C(=O)O)C3=O)ccc21 (centres undefined)
MEASURED ON: COLO 205 colon
CLASS: FALSE
//
MOLECULE: N#Cc1cc(-c2ccnc(Nc3ccc(NC(=O)CCl)cc3)n2)ccc1N1CCCC1
MEASURED ON: COLO 205 colon
CLASS: TRUE
//
MOLECULE: COc1ccc(-c2cc(-c3cc(OC)c(OC)c(OC)c3)c(C#N)c(=O)n2CCCCC(=O)O)cc1
MEASURED ON: COLO 205 colon
CLASS: FALSE

Report whether reported growth is lower than 90% (strictly) for COc1ccc(C2Nc3nc(SC)nc(N)c3N=C3c4ccccc4CCC32)cc1 (centres undefined)
FALSE

Now give it for COc1cc(-c2[nH]ncc2Nc2ccc(Cl)cc2)cc(OC)c1OC too.
FALSE

Same question for COc1ccc(C(=O)N/N=C/c2ccc(O)cc2O)cc1Nc1ccnc(C(F)(F)F)c1 please.
TRUE

Same question, Cc1cccc(Cc2cnc(NC(=O)CCCOc3ccc(Cl)cc3)s2)c1 this time
TRUE

Next record, please: C=C(C)[C@@H]1CC[C@]2(C(=O)N3CCN(C)CC3)CC[C@]3(C)[C@H](CC[C@@H]4[C@@]5(C)CC(CCCNC(C)=O)(CCCNC(C)=O)[C@H](OC(C)=O)C(C)(C)[C@@H]5CC[C@]43C)[C@@H]12
FALSE

====

tested on: HOP-62 NSCLC; test: NCI-60 one-dose screen, 48 h (100 = growth as untreated, 0 = no growth, -100 = all killed); settings: 10 µM unless noted
The panel holds about 83,000 compounds, 20% with a hit somewhere; the sample as a whole holds those more often.
We label by threshold. Values of growth strictly beneath 60% are criterion met. Values of 60% and up are criterion not met.

Past entries and their recorded results:
MOLECULE: COc1ccc(Oc2nc(Nc3ccc(N4CCOCC4)cc3)ncc2NC(=O)c2cc(OC)cc(OC)c2)cc1
CLASS: criterion not met

MOLECULE: Nc1n[nH]c2cccc(C#Cc3cccc(C(=O)Nc4ccc(CN5CCOCC5)c(C(F)(F)F)c4)c3)c12
CLASS: criterion met

MOLECULE: COc1nc2ccc(C)cc2cc1/C=[N+](\[O-])c1ccccc1
CLASS: criterion not met

MOLECULE: COc1ccc(C/C(C)=C(/c2ccc(OCCN3CCCC3)cc2)c2ccc(OC(=O)NCc3ccccc3)cc2)cc1
CLASS: criterion not met

MOLECULE: CC(C)(C)CC(N)=O
CLASS: criterion not met

MOLECULE: COc1ccc(-c2csc(NC(=O)CN3CCN(CCO)CC3)n2)cc1NS(=O)(=O)c1cccc2c(N(C)C)cccc12
CLASS: criterion not met

MOLECULE: COc1ccc(/C=C/C(=O)c2cc3c(N)c(C(=O)Nc4ccccc4)sc3nc2C)cc1
CLASS: criterion met

MOLECULE: COC(=O)N/N=C/c1c[n+]([O-])c2ccccc2[n+]1[O-]
CLASS: criterion met

Here's an entry: COc1ccc(-c2nnc3n(C)c(=O)c4ccccc4n23)cc1O . Is its growth below 60%?
criterion met

// next record Cc1ccc(/C=C(\C#N)c2cc3ccccc3[nH]2)cc1
criterion met

What do we get for COc1ccc(/C=N/NC(=O)CN2CCN(c3cc4c(cc3F)c(=O)c(C(=O)O)cn4C3CC3)CC2)cc1O ?
criterion not met

What do we get for Cc1c(C(C)(C)O)cn2ncnc(Oc3ccc(NC(=O)Nc4ccc(Cl)c(C(F)(F)F)c4)cc3)c12 ?
criterion not met

Here is the next molecule: CN1Cn2c(ccc2C(F)(F)F)C(=O)CS1(=O)=O
criterion not met

Another molecule to check: CN(Cc1ccccc1)c1nc(Cl)c(C2CC(c3ccc(F)cc3)=NN2C=O)s1 (stereo not given)
criterion not met

Try this molecule too: C=C1CC[C@@H]2[C@](C)(COC(C)=O)[C@H](OC(C)=O)CC[C@@]2(C)[C@@H]1CC(Nc1ccc(S(=O)(=O)Nc2nccs2)cc1)C1=CCOC1=O (stereo not given in full)
criterion not met

Follow-up item: COc1ccc(-c2cc3cnc4ccccc4c3oc2=O)cc1
criterion not met

Continue with O=C1OCC2=C1C(c1cccc([N+](=O)[O-])c1)c1cc3c(cc1N2CCO)CCC3 (stereo not given)
criterion met

Cool, now CCOC(=O)c1ccc(Nc2ncnc3c2cnn3-c2cccc(F)c2)cc1
criterion not met

What about CCC(=C(c1ccc(OCCCN(C)C)cc1)c1ccc(OCCCN(C)C)cc1)c1ccc(Cl)cc1 ?
criterion met

====

Measured growth, listed per entry.
system: MALME-3M melanoma; assay: NCI-60 one-dose screen, 48 h (100 = growth as untreated, 0 = no growth, -100 = all killed); conditions: 10 µM unless noted
The panel holds about 83,000 compounds, 20% with a hit somewhere; the sample as a whole holds those more often.
Write it as a number; the unit % goes unstated.

Observe how each entry below is paired with its result.
MOLECULE: Cc1ccc(C(=O)c2ccc(CC(=O)N=Nc3c(O)[nH]c4ccc(OC(F)(F)F)cc34)n2C)cc1
ENDPOINT RESULT: 126

MOLECULE: Fc1ccc(NC(c2ccc(F)cc2)C2CCN(CCCCc3ccccc3)CC2)cc1 (stereo not given)
ENDPOINT RESULT: 32.6

MOLECULE: CCOC(=O)c1c(-c2ccc(OC)cc2)c(C#N)c2c(C#N)c(N)nn2c1N
ENDPOINT RESULT: 30.8

MOLECULE: CCC(=C(c1ccc(OCCCN(C)C)cc1)c1ccc(OCCCN(C)C)cc1)c1ccc(Cl)cc1
ENDPOINT RESULT: -79.6

Requested read-out: growth. Entry: COc1ccc(C/C(C)=C(\c2ccc(O)cc2)c2ccc(OCCCN(C)C)cc2)cc1
97.1

One more molecule: O=C(Oc1ccc(CO[N+](=O)[O-])cc1)c1ccccc1
-69.9

Queued: O=C(NNC(=S)Nc1ccccc1)c1ccncc1
108

Then what about the molecule COc1ccc(-c2nn3c(-c4cc(F)c(Cl)cc4Cl)nnc3s2)cc1 ?
41.4

Same question for O=C1OCC2=C1C(c1cccc([N+](=O)[O-])c1)c1cc3c(cc1N2CCO)CCC3 (stereo not given) please.
38.9

Same lookup for CC(=O)N1N=C(c2ccc(F)cc2)CC1c1sc(N(C)Cc2ccccc2)nc1Cl (stereo not given) , please.
102

====

Listing of entries alongside the reported growth.
test system: OVCAR-3 ovarian; test: NCI-60 one-dose screen, 48 h (100 = growth as untreated, 0 = no growth, -100 = all killed); settings: 10 µM unless noted
About 83,000 compounds went through this panel and 20% of them were active in at least one assay; those are over-represented in the sample as a whole.
Give a bare numeral; the unit % is implied.

Example compounds with recorded growth:
COMPOUND: COCCn1cc(-c2nc(-c3cn(CCOC)c4ncccc34)cs2)c2ccccc21
growth, %: 17.2

COMPOUND: C=C1C(=O)O[C@@H]2[C@H]3[C@H](COC(C)=O)[C@@H](OC(C)=O)C[C@H]3C(=C)[C@@H](O)C[C@@H]12
growth, %: 80.9

COMPOUND: COc1ccc(-c2[nH]c3ccccc3c2-c2ccc(OC)cc2)cc1
growth, %: 12.9

COMPOUND: C[C@@H]1CC[C@@H]2[C@@H]1[C@H](OC(=O)/C=C/c1ccccc1)[C@]1(c3ccccc3)C[C@@H](NC(=O)CO)[C@@]2(C)O1
growth, %: 108

COMPOUND: COc1cc(-c2nn(-c3cccc(NC(=O)CCN4CCN(C)CC4)c3)cc2-c2ccncc2)ccc1Cl
growth, %: 2.81

COMPOUND: NC(N)=NC(N)=NCCCc1ccco1
growth, %: 102

Query (compound): [2H]C([2H])([2H])Oc1cc(F)ccc1/C=C/C(=O)/C=C(/C=C/c1ccc(F)cc1OC([2H])([2H])[2H])OB(F)F ; field requested: growth
10.5

Next record, please: COc1cc2nc3cc([N+](=O)[O-])ccc3c(NCCNCC(C)(C)O)c2cc1OC
-31.2

Repeat with COC(=O)c1nc(-c2ccc(C)cc2)oc1Sc1ccc(C)cc1
108

Entry to check: COc1ccc2c(O)c(/C=C3\N=Nc4nc(C)ccc43)oc2c1CC1CCNCC1
83.8

Repeat with Cc1oc2c(Cc3ccc(NC(=O)c4ccc(Cl)cc4)cc3)ncnc2c1C(=O)NO
95.8

Also O=C(/C=C/C12c3ccccc3C(c3ccccc31)C1C(=O)NC(=O)C12)c1ccncc1 (stereo not given) ?
4.84

Same question, Cc1ccc(-c2nc(C#N)c(S(=O)(=O)N(C)C)o2)cc1 this time
77

One more compound: O=C(CN1C(=O)S/C(=C\C(Cl)=C\c2ccccc2)C1=O)NCCCn1ccnc1
1.07

Can you check COc1ccc(-c2cc3cnc4ccccc4c3oc2=O)cc1 next?
106

Do the same for CCOc1nc(-c2ccccc2)cc2c(O)c(C(=O)N/N=C/c3ccc(N(C)C)cc3)[nH]c(=O)c12 please
111

Another: c1ccc(-c2cc(-c3cc(-c4ccccc4)on3)no2)cc1
127

Another compound to look at: O=C(CCCCCCCCC(=O)N/N=C\c1ccccc1O)N/N=C\c1ccccc1O
39.8

What do you get for O=C(N/N=C/c1ccc(O)cc1O)c1cccc(Nc2ccnc(C(F)(F)F)c2)c1 ?
32

Now give it for N=C(N)SCc1c2ccccc2c(CSC(=N)N)c2ccccc12 too.
93.5
